Just for reference, patent US10689378B2 is where these values come from.

- Tested on: H3K27 methylation in G401 cell
- ASSAY_OVERVIEW: ELISA (H3K27 methylation) assay in G401 cells
- Format: cell-based, human
- CONDITION_DETAILS: Homo sapiens, G-401, read-out: (c) IC50, ELISA Qualified
Mark MET only for IC50 values smaller than 40 nM; exact matches and larger values are NOT MET.

Field: example entries. Status: answers known.
COc1ccccc1CNc1ccc(-c2ccc(C(=O)N(C)C)cc2)c2nncn12; NOT MET
COc1cccc(F)c1CNc1ccc(-c2cccnc2C)c2nncn12; MET
COc1c(F)cccc1CNc1ccc(-c2ccc(CN(C)C)cc2)c2nncn12; NOT MET

Dear reviewer, please state whether COc1ccc(F)c(CNc2ccc(-c3ccc(CN(C)C)cc3)c3nncn23)c1 has IC50 strictly beneath 40 nM.
NOT MET

Quick check: IC50 of COc1cccc(F)c1CNc1ccc(-c2ccc(S(=O)(=O)NCCO)cc2)c2nncn12 under 40 nM?
MET

Problem: For the compound COc1cc(F)cc(CNc2ccc(-c3ccc(CN(C)C)cc3)c3nncn23)c1 , is IC50 under 40 nM?
NOT MET

# check: IC50 < 40 nM for COc1cccc(F)c1CNc1ccc(-c2cncc(N3CCCC3=O)c2)c2nncn12
MET

Lab note: confirm whether the reported IC50 for this compound is below 40 nM, equality not counting. compound: COc1cccc(F)c1CNc1ccc(-c2ccc(S(=O)(=O)C3CCN(C)CC3)cc2)c2nncn12
MET

Quick check: does COc1ccccc1CNc1ccc(-c2ccc(S(=O)(=O)N(C)C)cc2)c2nncn12 have IC50 under 40 nM?
MET

Regarding COc1ccccc1CNc1ccc(-c2ccc(C[N+](C)(C)[O-])cc2)c2nncn12 , kindly confirm whether its IC50 is beneath 40 nM.
NOT MET

Criterion: IC50 strictly below 40 nM. Is it met by COc1cccc(F)c1CNc1ccc(-c2c(C)nn(CCO)c2C)c2nncn12 ?
MET

Problem: For the compound COc1ccccc1CNc1ccc(-c2ccc(CN3CCCC3=O)cc2)c2nncn12 , is IC50 under 40 nM?
NOT MET

Threshold test, IC50 < 40 nM: COc1cc(F)ccc1CNc1ccc(-c2cnc(N3CCN(C(C)C)CC3)c(C(F)(F)F)c2)c2nncn12
NOT MET

Is it true that IC50 reported for COc1cccc(F)c1CNc1ccc(-c2cnc(CC(C)C)nc2C)c2nncn12 is less than 40 nM?
MET

Answer whether the compound COc1cccc(F)c1CNc1ccc(-c2cncc(S(C)(=O)=O)c2)c2nncn12 has IC50 strictly less than 40 nM
MET

====

- TARGET_ENTITY: wild type PRC2 (wtPRC2) complex (Homo sapiens, UniProt O75530)
- Sequence (O75530 whole entry): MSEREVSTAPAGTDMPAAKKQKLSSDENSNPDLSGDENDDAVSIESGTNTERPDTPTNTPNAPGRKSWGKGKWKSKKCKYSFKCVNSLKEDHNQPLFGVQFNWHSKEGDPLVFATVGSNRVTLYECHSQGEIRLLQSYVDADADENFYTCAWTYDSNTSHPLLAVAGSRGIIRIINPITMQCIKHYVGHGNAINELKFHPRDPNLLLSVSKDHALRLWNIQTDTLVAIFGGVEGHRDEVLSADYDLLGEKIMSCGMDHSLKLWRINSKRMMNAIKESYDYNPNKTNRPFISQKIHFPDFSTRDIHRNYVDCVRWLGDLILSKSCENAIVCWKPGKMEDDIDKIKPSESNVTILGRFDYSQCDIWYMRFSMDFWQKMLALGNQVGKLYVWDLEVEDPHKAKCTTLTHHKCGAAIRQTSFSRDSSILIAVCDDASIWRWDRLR
- Sequence (Q15910 whole entry partner): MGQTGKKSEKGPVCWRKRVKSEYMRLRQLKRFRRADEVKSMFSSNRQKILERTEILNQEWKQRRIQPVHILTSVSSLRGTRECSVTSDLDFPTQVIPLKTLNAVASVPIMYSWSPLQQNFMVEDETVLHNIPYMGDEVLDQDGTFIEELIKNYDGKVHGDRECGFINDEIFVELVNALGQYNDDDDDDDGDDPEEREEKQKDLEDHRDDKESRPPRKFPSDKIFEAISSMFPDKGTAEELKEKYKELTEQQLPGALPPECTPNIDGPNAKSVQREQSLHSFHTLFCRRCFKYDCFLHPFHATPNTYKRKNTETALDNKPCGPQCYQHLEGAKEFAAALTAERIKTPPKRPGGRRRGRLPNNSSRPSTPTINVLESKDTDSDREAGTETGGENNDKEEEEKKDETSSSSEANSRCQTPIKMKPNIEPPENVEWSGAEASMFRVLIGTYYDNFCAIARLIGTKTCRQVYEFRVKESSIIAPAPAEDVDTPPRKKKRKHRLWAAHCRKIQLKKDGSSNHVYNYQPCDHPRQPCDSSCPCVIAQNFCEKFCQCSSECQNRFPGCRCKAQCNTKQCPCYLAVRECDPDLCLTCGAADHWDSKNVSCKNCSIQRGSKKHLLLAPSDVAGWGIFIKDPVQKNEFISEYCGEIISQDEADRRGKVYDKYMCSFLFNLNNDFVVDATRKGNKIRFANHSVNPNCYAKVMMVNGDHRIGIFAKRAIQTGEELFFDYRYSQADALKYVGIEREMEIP
- Sequence (Q15022 whole entry partner): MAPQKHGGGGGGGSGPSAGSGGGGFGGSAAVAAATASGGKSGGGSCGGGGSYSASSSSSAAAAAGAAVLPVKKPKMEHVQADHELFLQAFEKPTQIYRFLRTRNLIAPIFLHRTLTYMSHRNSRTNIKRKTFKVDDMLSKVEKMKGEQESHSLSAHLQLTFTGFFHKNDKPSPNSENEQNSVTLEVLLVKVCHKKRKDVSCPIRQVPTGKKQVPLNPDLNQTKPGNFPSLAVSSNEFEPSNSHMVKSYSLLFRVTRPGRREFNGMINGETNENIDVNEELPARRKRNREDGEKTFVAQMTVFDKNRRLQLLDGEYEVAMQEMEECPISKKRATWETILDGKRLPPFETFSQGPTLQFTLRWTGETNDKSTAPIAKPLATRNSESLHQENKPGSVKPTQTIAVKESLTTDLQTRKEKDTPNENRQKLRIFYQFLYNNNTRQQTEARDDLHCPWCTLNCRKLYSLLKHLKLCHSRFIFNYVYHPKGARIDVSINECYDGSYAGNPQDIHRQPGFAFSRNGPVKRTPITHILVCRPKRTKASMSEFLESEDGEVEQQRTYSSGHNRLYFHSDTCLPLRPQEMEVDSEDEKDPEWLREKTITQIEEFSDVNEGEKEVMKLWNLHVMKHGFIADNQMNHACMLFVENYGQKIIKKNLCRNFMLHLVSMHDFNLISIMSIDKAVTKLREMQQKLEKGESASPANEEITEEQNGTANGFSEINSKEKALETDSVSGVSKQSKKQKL
- Sequence (Q09028 whole entry partner): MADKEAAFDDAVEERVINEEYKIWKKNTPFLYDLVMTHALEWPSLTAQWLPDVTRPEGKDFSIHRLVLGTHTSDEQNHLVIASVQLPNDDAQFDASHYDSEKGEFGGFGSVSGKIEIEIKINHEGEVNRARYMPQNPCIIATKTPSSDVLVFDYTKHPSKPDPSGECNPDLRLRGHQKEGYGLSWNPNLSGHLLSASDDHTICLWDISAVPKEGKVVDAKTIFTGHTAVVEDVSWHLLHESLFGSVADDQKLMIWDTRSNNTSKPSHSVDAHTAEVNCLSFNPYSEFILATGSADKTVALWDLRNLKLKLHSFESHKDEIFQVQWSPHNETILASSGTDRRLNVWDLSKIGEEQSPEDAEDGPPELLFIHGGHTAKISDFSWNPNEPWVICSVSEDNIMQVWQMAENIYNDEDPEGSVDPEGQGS
- Sequence (Q6ZN18 whole entry partner): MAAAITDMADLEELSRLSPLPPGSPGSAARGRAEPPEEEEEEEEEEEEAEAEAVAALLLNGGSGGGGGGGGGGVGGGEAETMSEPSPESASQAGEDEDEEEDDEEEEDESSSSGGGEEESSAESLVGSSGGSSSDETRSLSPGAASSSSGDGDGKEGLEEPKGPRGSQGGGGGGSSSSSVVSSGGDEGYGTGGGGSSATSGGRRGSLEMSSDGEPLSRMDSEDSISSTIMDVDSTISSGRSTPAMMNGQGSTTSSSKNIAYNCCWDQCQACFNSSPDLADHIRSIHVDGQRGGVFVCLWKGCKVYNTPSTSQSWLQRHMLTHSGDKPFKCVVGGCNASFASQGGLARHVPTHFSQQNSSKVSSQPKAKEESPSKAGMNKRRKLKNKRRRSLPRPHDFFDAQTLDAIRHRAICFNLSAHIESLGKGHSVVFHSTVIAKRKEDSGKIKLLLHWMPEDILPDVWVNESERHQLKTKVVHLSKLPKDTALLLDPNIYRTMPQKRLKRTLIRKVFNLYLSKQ
- ASSAY_OVERVIEW: EED LC-MS assay (SAH production by PRC2)
- Type: biochemical
- CONDITION_DETAILS: read-out: (b) IC50, EED LC-MS Qualified
Please provide measured IC50 for the entries that follow.
A bare number is not enough; add the unit after it.

COc1cccc(F)c1CNc1ccc(-c2ccc(S(=O)(=O)C3CCNCC3)cc2)c2nncn12; 64.9 nM
COc1ccccc1CNc1ccc(-c2ccc(S(=O)(=O)C3CCNCC3)cc2)c2nncn12; 144 nM
COc1cccc(F)c1CNc1ccc(-c2cncn2C)c2nncn12; 35.2 nM
COc1cccc(F)c1CNc1ccc(-c2ccc(N(C)S(C)(=O)=O)cc2)c2nncn12; 83.4 nM
COc1ccccc1CNc1ccc(-c2ccc(S(=O)(=O)N3CCN(C)CC3)cc2)c2nncn12; 930 nM
COc1cc(F)ccc1CNc1ccc(-c2ccc(CN(C)C)cc2)c2nncn12; 294 nM
COc1ccccc1CNc1ccc(-c2ccc(N3CCN(C(C)C)CC3)cc2)c2nncn12; 106 nM

// below: IC50 requested for another molecule
Given COc1ccccc1CNc1ccc(-c2ccc(C(C)N3CCCC3)cc2)c2nncn12 (centres unmarked) , respond with its IC50.
142 nM

====

- TARGET_ENTITY: wild type PRC2 (wtPRC2) complex (Homo sapiens, UniProt O75530)
- ASSAY_OVERVIEW: EED LC-MS assay (SAH production by PRC2)
- Type: biochemical
- CONDITION_DETAILS: PRC2 LC-MS assay; read-out: (b) IC50 EED LC-MS Qualified
# label = 1 if IC50 < 30 nM else -1

The following compounds have reported results that may help.
CCc1ncccc1-c1ccc(NCc2c(F)cccc2OC)n2cnnc12; -1
COc1cccc(F)c1CNc1ccc(-c2c(Cl)ccnc2C)c2nncn12; -1
COc1cccc(F)c1CNc1ccc(-c2cc(C)ncc2C)c2nncn12; -1
COc1cccc(F)c1CNc1ccc(-c2cccnc2CO)c2nncn12; 1
COc1cccc(F)c1CNc1ccc(-c2cnc(C)cc2C)c2nncn12; -1
COc1cccc(F)c1CNc1ccc(-c2cncc(C(=O)N(C)C)c2)c2nncn12; -1
COCc1cncc(-c2ccc(NCc3c(F)cccc3OC)n3cnnc23)c1; -1
COc1cccc(F)c1CNc1ccc(-c2ccc(CC#N)nc2C)c2nncn12; 1
COc1cccc(F)c1CNc1ccc(-c2ccc(S(C)(=O)=O)cc2F)c2nncn12; -1
COc1cccc(F)c1CNc1ccc(-c2cnccc2C(F)F)c2nncn12; -1

I wonder whether COc1cccc(F)c1CNc1ccc(-c2cn(C)nc2C)c2nncn12 has IC50 below 30 nM. Can you tell?
1

Identify whether the compound CCc1ncncc1-c1ccc(NCc2c(F)cccc2OC)n2cnnc12 records IC50 below 30 nM.
-1

In plain terms, does COc1cccc(F)c1CNc1ccc(-c2ccc(S(C)(=O)=O)nc2C)c2nncn12 come in under 30 nM for IC50?
1

Here's an entry: CNC(=O)c1cncc(-c2ccc(NCc3c(F)cccc3OC)n3cnnc23)c1 . Is its IC50 below 30 nM?
-1

Does this compound meet the criterion IC50 < 30 nM? COc1cccc(F)c1CNc1ccc(-c2cnc(C(=O)N(C)C)cc2C)c2nncn12
1

Hello, I'm reviewing records and need to know if IC50 of COc1cccc(F)c1CNc1ccc(-c2cnc(Cl)cc2C)c2nncn12 is below 30 nM. Could you check?
-1

Identify whether the compound COc1cccc(F)c1CNc1ccc(-c2cn(C)nc2C(F)(F)F)c2nncn12 records IC50 below 30 nM.
-1

Decide: IC50 of COc1cccc(Cl)c1CNc1ccc(-c2cccnc2C)c2nncn12 strictly below 30 nM?
-1

====

- Test system: H3K27 methylation in G401 cell
- ASSAY_OVERVIEW: ELISA (H3K27 methylation) assay in G401 cells
- Assay type: cell-based, human
- CONDITION_DETAILS: Homo sapiens, G-401, read-out: (c) IC50, ELISA Qualified
pIC50: −log10 of the molar value.
The label depends only on pIC50: Criterion met if it is at least 7, Criterion not met if it is smaller.

Please review the following examples before continuing.
COc1cccc(CNc2ccc(-c3ccc(CN(C)C)cc3)c3nncn23)c1 [Example 14]; Criterion not met
COc1ccccc1CNc1ccc(-c2ccnc(N3CCN(C)CC3)c2)c2nncn12 [Example 67]; Criterion met

Pending compound:
Check this compound for pIC50 at or above 7: COc1c(F)cccc1CNc1ccc(-c2cccnc2)c2nncn12 [Example 144]
Criterion not met

====

- Tested on: H3K27 methylation in G401 cell
- ASSAY_OVERVIEW: ELISA (H3K27 methylation) assay in G401 cells
- Format: cell-based, human
- CONDITION_DETAILS: Homo sapiens, G-401, read-out: (c) IC50, ELISA Qualified
Exercise: state measured log10 IC50 for each of the molecules provided.
All values: log10 IC50 [nM].

Here are 4 molecules together with their reported answers.
COc1cccc(F)c1CNc1ccc(-c2ccc(C)nc2)c2nncn12 [Example 164]; 1.56
COc1ccccc1CNc1ccc(-c2ccc(S(=O)(=O)C3CCNCC3)cc2)c2nncn12 [Example 53]; 1.56
COc1ccccc1CNc1ccc(-c2ccc(C(=O)N(C)C)cc2F)c2nncn12 [Example 71]; 1.64
COc1ccccc1CNc1ccc(-c2ccnnc2)c2nncn12 [Example 26]; 1.68

Quick one: give me log10 IC50 for each item below, same order please.
1. COc1cccc(F)c1CNc1ccc(-c2cnccc2C)c2nncn12 [Example 150]
2. COc1ccccc1CNc1ccc(-c2ccnc(C)c2)c2nncn12 [Example 91]

1.15
1.78

Batch request: log10 IC50 per item, same order as input.
1. COc1cc(F)ccc1CNc1ccc(-c2cnc(N3CCN(C(C)C)CC3)nc2)c2nncn12 [Example 104]
2. COc1ccc(F)cc1CNc1ccc(-c2ccc(S(=O)(=O)C3CCN(C)CC3)cc2)c2nncn12 [Example 135]
3. CCN1CCN(c2ccc(-c3ccc(NCc4ccccc4OC)n4cnnc34)cn2)CC1 [Example 69]
4. COc1ccccc1CNc1ccc(-c2cccnc2)c2nncn12 [Example 27]

1: 2.12; 2: 2.45; 3: 1.87; 4: 1.71

Give log10 IC50 for all molecules that follow.
1. CN(C)Cc1ccc(-c2ccc(NCc3ccccc3)n3cnnc23)cc1 [Example 17]
2. COc1cccc(F)c1CNc1ccc(-c2cnc(N3CCN(C(C)C)CC3)c(Cl)c2)c2nncn12 [Example 109]

2.40
2.01
